target: human PSMA (Homo sapiens (Human), UniProt Q04609); assay: Enzymatic assay for in vitro evaluation of PSMA inhibitors (fluorescent assay of PSMA activity, NAAG substrate, OPA detection of glutamate); type: biochemical; conditions: 10 μM
Sequence (Q04609 whole entry): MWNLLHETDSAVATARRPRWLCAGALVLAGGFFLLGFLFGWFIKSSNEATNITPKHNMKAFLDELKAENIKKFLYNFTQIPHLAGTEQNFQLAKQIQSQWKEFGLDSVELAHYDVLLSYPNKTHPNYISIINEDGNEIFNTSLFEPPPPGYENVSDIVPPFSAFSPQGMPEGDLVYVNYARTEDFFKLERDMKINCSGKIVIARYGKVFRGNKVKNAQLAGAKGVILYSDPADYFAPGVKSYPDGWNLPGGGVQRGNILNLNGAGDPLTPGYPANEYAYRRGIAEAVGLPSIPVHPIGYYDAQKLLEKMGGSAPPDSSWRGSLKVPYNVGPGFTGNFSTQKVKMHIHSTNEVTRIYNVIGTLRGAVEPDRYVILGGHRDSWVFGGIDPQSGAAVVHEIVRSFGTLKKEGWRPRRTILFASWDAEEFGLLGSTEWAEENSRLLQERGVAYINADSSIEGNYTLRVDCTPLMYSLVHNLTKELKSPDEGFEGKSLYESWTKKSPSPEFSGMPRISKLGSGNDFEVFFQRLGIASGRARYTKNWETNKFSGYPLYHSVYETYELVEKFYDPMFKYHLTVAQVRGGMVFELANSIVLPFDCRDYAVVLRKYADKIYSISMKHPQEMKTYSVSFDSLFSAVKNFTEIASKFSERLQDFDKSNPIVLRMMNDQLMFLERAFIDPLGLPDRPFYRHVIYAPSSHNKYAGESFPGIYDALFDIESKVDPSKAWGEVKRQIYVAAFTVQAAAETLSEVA
reported.endpoint: PSMA Blkg % (10 μM) (%)

{"compound": "O=C(O)Cn1cc(C[C@H](NC(=O)N[C@@H](CCCCNC(=O)OCc2ccccc2)C(=O)O)C(=O)O)nn1", "target.of.assay": "human PSMA (Homo sapiens (Human), UniProt Q04609)", "reported.value": 29}
{"compound": "O=C(O)CC[C@H](NC(=O)C[C@@H](NC(=O)OCC1c2ccccc2-c2ccccc21)C(=O)O)C(=O)O", "target.of.assay": "human PSMA (Homo sapiens (Human), UniProt Q04609)", "reported.value": 82}
{"compound": "O=C(O)CCC(Nc1c(NC(CCC(=O)O)C(=O)O)c(=O)c1=O)C(=O)O (stereo not shown)", "target.of.assay": "human PSMA (Homo sapiens (Human), UniProt Q04609)", "reported.value": 14}
{"compound": "O=C(O)CC[C@H](NC(=O)N[C@@H](CCCCNC(=O)[C@H]1O[C@@H](CNC(=O)CCc2ccc(-n3cc(CCCF)nn3)cc2)[C@H](O)[C@@H](O)[C@H]1O)C(=O)O)C(=O)O", "target.of.assay": "human PSMA (Homo sapiens (Human), UniProt Q04609)", "reported.value": 96}
{"compound": "CC(C)(C)OC(=O)N1CCC[C@H]1COP(=O)(O)CC(CCC(=O)O)C(=O)O (stereo partly shown)", "target.of.assay": "human PSMA (Homo sapiens (Human), UniProt Q04609)", "reported.value": 83}
{"compound": "O=C(O)CC[C@H](NC(=O)N[C@@H](CCCCNc1nc(-c2ccc(-n3cc(CCCF)nn3)cc2)cs1)C(=O)O)C(=O)O", "target.of.assay": "human PSMA (Homo sapiens (Human), UniProt Q04609)", "reported.value": 98}
{"compound": "O=C(O)CC[C@H](NC(=O)N[C@@H](Cc1ccc(NC(=O)c2ccc(-n3cc(CCCF)nn3)cc2)cc1)C(=O)O)C(=O)O", "target.of.assay": "human PSMA (Homo sapiens (Human), UniProt Q04609)", "reported.value": 99}

---

molecular target: human PSMA (Homo sapiens (Human), UniProt Q04609); experiment: Enzymatic assay for in vitro evaluation of PSMA inhibitors (fluorescent assay of PSMA activity, NAAG substrate, OPA detection of glutamate); type: biochemical; details: 1.0 μM
reported.endpoint: PSMA Blkg % (1.0 μM) (%)

{"compound": "O=C(O)CCC(CP(=O)(O)OCCC1CCN(C(=O)CCc2ccc(-n3cc(CCCF)nn3)cc2)CC1)C(=O)O (stereo not shown)", "reported.endpoint": "PSMA Blkg % (1.0 μM)", "reported.value": 7}
{"compound": "O=C(O)CC[C@H](NC(=O)N[C@@H](CCCCNC(=O)N1CCN(C(=O)c2cc(C(=O)N3CCN(C(=O)NCCCC[C@@H](NC(=O)N[C@H](CCC(=O)O)C(=O)O)C(=O)O)CC3)cc(-n3cc(CCCF)nn3)c2)CC1)C(=O)O)C(=O)O", "reported.endpoint": "PSMA Blkg % (1.0 μM)", "reported.value": 98}
{"compound": "CCN(CC)C(=O)c1cc(C(=O)N2CCN(C(=O)NCCCC[C@H](NC(=O)N[C@@H](CCC(=O)O)C(=O)O)C(=O)O)CC2)cc(-n2cc(CCCF)nn2)c1", "reported.endpoint": "PSMA Blkg % (1.0 μM)", "reported.value": 96}
{"compound": "O=C(O)CC[C@H](NC(=O)N[C@@H](CC1CCN(C(=S)Nc2ccc(-n3cc(CCCF)nn3)cc2)CC1)C(=O)O)C(=O)O", "reported.endpoint": "PSMA Blkg % (1.0 μM)", "reported.value": 96}
{"compound": "O=C(O)CC[C@H](NC(=O)C[C@@H](NC(=O)CCNC(=O)Cn1cc(CCCF)nn1)C(=O)O)C(=O)O", "reported.endpoint": "PSMA Blkg % (1.0 μM)", "reported.value": 5}
{"compound": "CCN(CC)C(=O)c1cc(C(=O)NCCCC[C@H](NC(=O)N[C@@H](CCC(=O)O)C(=O)O)C(=O)O)cc(-n2cc(CCCF)nn2)c1", "reported.endpoint": "PSMA Blkg % (1.0 μM)", "reported.value": 81}
{"compound": "C[C@@](Cc1cccc(NC(=O)CCCn2cc(CCCF)nn2)c1)(NC(=O)N[C@@H](CCC(=O)O)C(=O)O)C(=O)O", "reported.endpoint": "PSMA Blkg % (1.0 μM)", "reported.value": 62}

---

target: human PSMA (Homo sapiens (Human)); assay: Enzymatic assay for in vitro evaluation of PSMA inhibitors (fluorescent assay of PSMA activity, NAAG substrate, OPA detection of glutamate); format: biochemical; settings: 1.0 μM

{"compound.string": "O=C(O)CC[C@H](NC(=O)N[C@@H](CCCCNc1nc(F)ccc1[N+](=O)[O-])C(=O)O)C(=O)O", "PSMA Blkg % (1.0 μM)": "97%"}
{"compound.string": "NCCOCCOCCOCCOCc1cn(-c2cc(C(=O)Nc3ccc(C[C@H](NC(=O)N[C@@H](CCC(=O)O)C(=O)O)C(=O)O)cc3)cc(C(=O)Nc3ccc(C[C@H](NC(=O)N[C@@H](CCC(=O)O)C(=O)O)C(=O)O)cc3)c2)nn1", "PSMA Blkg % (1.0 μM)": "99%"}
{"compound.string": "O=C(O)CC[C@H](NC(=O)N[C@@H](CCCCNc1nc(-c2cccc([N+](=O)[O-])c2)cs1)C(=O)O)C(=O)O", "PSMA Blkg % (1.0 μM)": "96%"}

---

target: human PSMA (Homo sapiens (Human)); test: Enzymatic assay for in vitro evaluation of PSMA inhibitors (fluorescent assay of PSMA activity, NAAG substrate, OPA detection of glutamate); format: biochemical; conditions: 1.0 μM
Attribute: PSMA Blkg % (1.0 μM)

{"compound": "O=C(O)CC[C@H](NC(=O)C[C@@H](NC(=O)CCNC(=O)OCc1ccccc1)C(=O)O)C(=O)O", "target.of.assay": "human PSMA (Homo sapiens (Human))", "PSMA Blkg % (1.0 μM) [%]": 33}
{"compound": "O=C(O)CC[C@H](NC(=O)N[C@@H](CCCCNc1cc(NCCOCCn2cc(CCCF)nn2)ncn1)C(=O)O)C(=O)O", "target.of.assay": "human PSMA (Homo sapiens (Human))", "PSMA Blkg % (1.0 μM) [%]": 98}
{"compound": "O=C(O)CC[C@H](NC(=O)N[C@@H](Cc1ccc(NC(=O)N2CCN(C(=O)Cn3cc(CCCF)nn3)CC2)cc1)C(=O)O)C(=O)O", "target.of.assay": "human PSMA (Homo sapiens (Human))", "PSMA Blkg % (1.0 μM) [%]": 100}
{"compound": "O=C(O)CC[C@H](NC(=O)C[C@@H](NC(=O)N1CCN(C(=O)OCc2ccccc2)CC1)C(=O)O)C(=O)O", "target.of.assay": "human PSMA (Homo sapiens (Human))", "PSMA Blkg % (1.0 μM) [%]": 25}
{"compound": "O=C(O)CC[C@H](NC(=O)C[C@@H](NC(=O)CCCCCNC(=O)c1cc(C(=O)NCCCCCC(=O)N[C@H](CC(=O)N[C@@H](CCC(=O)O)C(=O)O)C(=O)O)cc([N+](=O)[O-])c1)C(=O)O)C(=O)O", "target.of.assay": "human PSMA (Homo sapiens (Human))", "PSMA Blkg % (1.0 μM) [%]": 72}
{"compound": "O=C(O)CCC(NC(=O)C[C@@H](NC(=O)CCNC(=O)c1cc(C(=O)NCCC(=O)N[C@H](CC(=O)NC(CCC(=O)O)C(=O)O)C(=O)O)cc(-n2cc(CCCF)nn2)c1)C(=O)O)C(=O)O (stereo partly drawn)", "target.of.assay": "human PSMA (Homo sapiens (Human))", "PSMA Blkg % (1.0 μM) [%]": 59}
{"compound": "O=C(O)CC[C@H](NC(=O)N[C@@H](CCCCNc1ccc([N+](=O)[O-])c(F)n1)C(=O)O)C(=O)O", "target.of.assay": "human PSMA (Homo sapiens (Human))", "PSMA Blkg % (1.0 μM) [%]": 66}
{"compound": "O=C(O)CC[C@H](NC(=O)N[C@@H](COC(=O)N1CCN(C(=O)OCc2ccccc2)CC1)C(=O)O)C(=O)O", "target.of.assay": "human PSMA (Homo sapiens (Human))", "PSMA Blkg % (1.0 μM) [%]": 65}
{"compound": "O=C(O)CC[C@H](NC(=O)N[C@@H](CC1CCN(C(=O)c2cc(C(=O)O)cc(-n3cc(CCCF)nn3)c2)CC1)C(=O)O)C(=O)O", "target.of.assay": "human PSMA (Homo sapiens (Human))", "PSMA Blkg % (1.0 μM) [%]": 96}
{"compound": "O=C(O)CC[C@H](NC(=O)C[C@@H](NC(=O)CCCNC(=O)c1cc(C(=O)NCCCC(=O)N[C@H](CC(=O)N[C@@H](CCC(=O)O)C(=O)O)C(=O)O)cc([N+](=O)[O-])c1)C(=O)O)C(=O)O", "target.of.assay": "human PSMA (Homo sapiens (Human))", "PSMA Blkg % (1.0 μM) [%]": 88}
{"compound": "O=C(O)CCC(NC(=O)NC(CC1CCN(C(=O)CCC(CCC(=O)N2CCC(C[C@H](NC(=O)NC(CCC(=O)O)C(=O)O)C(=O)O)CC2)NC(=O)c2ccc(-n3cc(CCCF)nn3)cc2)CC1)C(=O)O)C(=O)O (stereo in doubt)", "target.of.assay": "human PSMA (Homo sapiens (Human))", "PSMA Blkg % (1.0 μM) [%]": 96}
{"compound": "O=C(O)CC[C@H](NC(=O)N[C@@H](Cc1ccc(NC(=O)Nc2ccc(C[C@H](NC(=O)N[C@@H](CCC(=O)O)C(=O)O)C(=O)O)cc2)cc1)C(=O)O)C(=O)O", "target.of.assay": "human PSMA (Homo sapiens (Human))", "PSMA Blkg % (1.0 μM) [%]": 98}
